// provenance: patent US12653815B2

Target: human 5-HT4(b) receptor (Homo sapiens)
Construct: overexpressing the full-length human 5-HT4(b) receptor with an N-terminal FLAG tag; FLAG (N)
Sequence (Q13639 whole entry): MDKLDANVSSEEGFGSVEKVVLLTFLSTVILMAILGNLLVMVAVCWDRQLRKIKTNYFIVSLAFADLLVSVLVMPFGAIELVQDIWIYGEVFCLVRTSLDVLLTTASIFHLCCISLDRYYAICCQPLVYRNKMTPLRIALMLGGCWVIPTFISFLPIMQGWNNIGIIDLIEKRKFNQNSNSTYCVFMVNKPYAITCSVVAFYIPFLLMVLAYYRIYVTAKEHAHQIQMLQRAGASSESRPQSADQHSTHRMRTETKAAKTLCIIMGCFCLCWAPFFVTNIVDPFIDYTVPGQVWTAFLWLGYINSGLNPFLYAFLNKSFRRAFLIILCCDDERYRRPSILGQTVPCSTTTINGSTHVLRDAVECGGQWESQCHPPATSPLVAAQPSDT
Test: 5-HT4(b) agonist assay (cAMP accumulation)
Conditions: CHO-K1 cells overexpressing full-length human 5-HT4(b) receptor; cAMP accumulation after 30 minutes at room temperature; 1 μM 5-HT as 100% activity
Label satisfied when EC50 is strictly below 10 nM; at or above that, label not satisfied.

Previously resolved entries follow.
| Molecule | Subject Of Test | Label |
| --- | --- | --- |
| Nc1c(Cl)cc(C(=O)NCC2CCN(CC3CCN(CCCCCCCCC(=O)NC[C@H](O)[C@@H](O)[C@H](O)[C@H](O)CO)CC3)CC2)c2c1CCO2 [Example 35] | human 5-HT4(b) receptor (Homo sapiens) | satisfied |
| COc1cc(N)c(Cl)cc1C(=O)N[C@@H]1CCN(CCCCCC(=O)NCCCCCCCC(=O)NCCP(=O)(O)O)C[C@@H]1OC [Example 25] | human 5-HT4(b) receptor (Homo sapiens) | not satisfied |
| COc1cc(N)c(Cl)cc1C(=O)N[C@@H]1CCN(CCCCCC(=O)N[C@@H]2CCCN(CCCCCC(=O)NC[C@H](O)[C@@H](O)[C@H](O)[C@H](O)CO)C2)C[C@@H]1OC [Example 13] | human 5-HT4(b) receptor (Homo sapiens) | not satisfied |
| COc1cc(N)c(Cl)cc1C(=O)N[C@@H]1CCN(CCCCCC(=O)NCCCCCCCC(=O)N(CCP(=O)(O)O)C[C@H](O)[C@@H](O)[C@H](O)[C@H](O)CO)C[C@@H]1OC [Example 26] | human 5-HT4(b) receptor (Homo sapiens) | not satisfied |
| COc1cc(N)c(Cl)cc1C(=O)N[C@@H]1CCN(CCCCCC(=O)NCC(=O)NC[C@H](O)[C@@H](O)[C@H](O)[C@H](O)CO)C[C@@H]1OC [Example 5] | human 5-HT4(b) receptor (Homo sapiens) | not satisfied |
| Nc1c(Cl)cc(C(=O)NC2CCN(CCCCCC(=O)N[C@@H]3CCCN(CCCCCCCC(=O)NC[C@H](O)[C@@H](O)[C@H](O)[C@H](O)CO)C3)CC2)c2c1CCO2 [Example 28] | human 5-HT4(b) receptor (Homo sapiens) | satisfied |
| COc1cc(N)c(Cl)cc1C(=O)N[C@@H]1CCN(CC(C)CCCC(=O)NCCCCCCCC(=O)NC[C@H](O)[C@@H](O)[C@H](O)[C@H](O)CO)C[C@@H]1OC (some centres unmarked) [Example 19] | human 5-HT4(b) receptor (Homo sapiens) | not satisfied |
| CO[C@H]1CN(CCCCCC(=O)NCCCC(=O)NC[C@H](O)[C@@H](O)[C@H](O)[C@H](O)CO)CC[C@H]1NC(=O)c1cc(Cl)c(N)c2c1OCC2 [Example 46] | human 5-HT4(b) receptor (Homo sapiens) | satisfied |
| COc1cc(N)c(Cl)cc1C(=O)N[C@@H]1CCN(CCCCCC(=O)N(C)[C@@H]2CCCN(CCCCCCCC(=O)NC[C@H](O)[C@@H](O)[C@H](O)[C@H](O)CO)C2)C[C@@H]1OC [Example 14] | human 5-HT4(b) receptor (Homo sapiens) | not satisfied |
| COc1cc(N)c(Cl)cc1C(=O)N[C@@H]1CCN(CCCCCC(=O)NCCCCCCCC(=O)NC[C@H](O)[C@@H](O)[C@H](O)[C@H](O)CO)C[C@@H]1OC [Example 2] | human 5-HT4(b) receptor (Homo sapiens) | not satisfied |

Query block: hey, is EC50 for Nc1c(Cl)cc(C(=O)NC2CCN(CCCCCC(=O)NCCCCCC(=O)NC[C@H](O)[C@@H](O)[C@H](O)[C@H](O)CO)CC2)c2c1CCO2 [Example 33] lower than 10 nM or not?
Result block: not satisfied

Query block: hey, is EC50 for COc1cc(N)c(Cl)cc1C(=O)N[C@@H]1CCN(CCCCCC(=O)N(C)C2CCN(CCCCCC(=O)NC[C@H](O)[C@@H](O)[C@H](O)[C@H](O)CO)CC2)C[C@@H]1OC [Example 11] lower than 10 nM or not?
Result block: not satisfied

Query block: hey, is EC50 for COc1cc(N)c(Cl)cc1C(=O)N[C@@H]1CCN(CCCC(C)CC(=O)NCCCCCCCC(=O)NC[C@H](O)[C@@H](O)[C@H](O)[C@H](O)CO)C[C@@H]1OC (some centres unmarked) [Example 21] lower than 10 nM or not?
Result block: not satisfied

Query block: hey, is EC50 for COc1cc(N)c(Cl)cc1C(=O)N[C@@H]1CCN(CCCCCC(=O)NC[C@H](O)[C@@H](O)[C@H](O)[C@H](O)CO)C[C@@H]1OC [Example 1] lower than 10 nM or not?
Result block: not satisfied
